Could you please report measured IC50 for the items listed next?
molecular target: L-type calcium channels (Rattus norvegicus, UniProt P22002); construct: The thoracic aorta isolated from a Wistar rat was cut to obtain ring-shaped samples; from tissue; host or cells: isolated Wistar rat thoracic aorta rings, endothelium removed; assay: Antagonistic activity on L-type calcium channels (relaxation of KCl-induced contraction of isolated rat thoracic aorta); conditions: isolated Wistar rat thoracic aorta, Table 21, read-out: L-type inhibition pIC50 (converted)
Sequence (P22002 whole entry): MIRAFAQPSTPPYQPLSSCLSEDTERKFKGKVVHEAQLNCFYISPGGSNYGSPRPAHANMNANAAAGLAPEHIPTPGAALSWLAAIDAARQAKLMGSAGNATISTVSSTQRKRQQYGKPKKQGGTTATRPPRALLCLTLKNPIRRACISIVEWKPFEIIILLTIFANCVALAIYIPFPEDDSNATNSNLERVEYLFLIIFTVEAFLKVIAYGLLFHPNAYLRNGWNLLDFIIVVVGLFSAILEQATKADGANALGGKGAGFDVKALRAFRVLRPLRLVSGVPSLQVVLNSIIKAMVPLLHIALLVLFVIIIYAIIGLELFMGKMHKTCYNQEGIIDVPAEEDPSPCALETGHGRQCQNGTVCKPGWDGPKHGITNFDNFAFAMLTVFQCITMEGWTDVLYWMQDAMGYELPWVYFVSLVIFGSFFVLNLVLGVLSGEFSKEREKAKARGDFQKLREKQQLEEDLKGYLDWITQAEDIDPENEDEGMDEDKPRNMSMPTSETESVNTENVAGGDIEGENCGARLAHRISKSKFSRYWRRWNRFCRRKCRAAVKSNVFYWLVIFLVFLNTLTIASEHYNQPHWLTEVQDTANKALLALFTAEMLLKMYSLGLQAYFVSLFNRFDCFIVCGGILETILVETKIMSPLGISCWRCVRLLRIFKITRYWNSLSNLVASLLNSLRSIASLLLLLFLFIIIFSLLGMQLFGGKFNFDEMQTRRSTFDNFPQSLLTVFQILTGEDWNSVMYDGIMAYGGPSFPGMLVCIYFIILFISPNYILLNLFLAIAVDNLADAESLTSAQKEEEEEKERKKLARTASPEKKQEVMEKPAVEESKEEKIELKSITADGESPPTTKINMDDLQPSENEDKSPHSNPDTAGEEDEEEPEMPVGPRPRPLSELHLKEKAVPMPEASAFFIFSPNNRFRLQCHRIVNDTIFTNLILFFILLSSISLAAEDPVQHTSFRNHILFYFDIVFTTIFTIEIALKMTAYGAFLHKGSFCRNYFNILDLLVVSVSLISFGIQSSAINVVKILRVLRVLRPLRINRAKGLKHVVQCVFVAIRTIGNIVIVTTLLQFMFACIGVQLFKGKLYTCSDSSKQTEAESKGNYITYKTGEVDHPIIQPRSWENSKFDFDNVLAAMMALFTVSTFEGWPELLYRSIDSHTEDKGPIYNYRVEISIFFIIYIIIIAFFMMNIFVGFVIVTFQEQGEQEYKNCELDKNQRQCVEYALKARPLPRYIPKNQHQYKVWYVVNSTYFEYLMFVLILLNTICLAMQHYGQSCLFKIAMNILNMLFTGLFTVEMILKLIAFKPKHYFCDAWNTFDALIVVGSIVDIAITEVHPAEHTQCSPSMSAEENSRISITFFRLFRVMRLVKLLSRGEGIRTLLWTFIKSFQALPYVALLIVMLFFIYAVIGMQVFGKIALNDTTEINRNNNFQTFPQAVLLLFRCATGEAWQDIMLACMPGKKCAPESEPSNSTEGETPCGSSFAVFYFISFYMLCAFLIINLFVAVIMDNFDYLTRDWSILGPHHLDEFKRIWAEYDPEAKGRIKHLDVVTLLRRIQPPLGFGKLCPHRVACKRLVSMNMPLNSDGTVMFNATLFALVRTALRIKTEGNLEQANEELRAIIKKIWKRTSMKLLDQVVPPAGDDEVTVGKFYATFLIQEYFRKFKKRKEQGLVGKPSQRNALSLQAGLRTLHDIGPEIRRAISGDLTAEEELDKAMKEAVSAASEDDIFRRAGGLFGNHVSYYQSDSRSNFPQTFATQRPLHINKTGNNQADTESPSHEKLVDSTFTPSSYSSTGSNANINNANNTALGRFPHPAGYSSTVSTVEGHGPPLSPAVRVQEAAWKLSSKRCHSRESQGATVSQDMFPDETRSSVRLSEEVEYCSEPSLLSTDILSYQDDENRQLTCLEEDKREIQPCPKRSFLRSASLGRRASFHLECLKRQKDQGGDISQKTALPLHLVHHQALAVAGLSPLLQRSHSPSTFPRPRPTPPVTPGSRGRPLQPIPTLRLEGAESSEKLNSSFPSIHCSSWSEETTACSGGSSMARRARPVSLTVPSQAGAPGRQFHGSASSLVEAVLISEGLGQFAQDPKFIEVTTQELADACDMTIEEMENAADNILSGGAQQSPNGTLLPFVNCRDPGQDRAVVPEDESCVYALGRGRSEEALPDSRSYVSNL
Sequence (P54287 whole entry partner): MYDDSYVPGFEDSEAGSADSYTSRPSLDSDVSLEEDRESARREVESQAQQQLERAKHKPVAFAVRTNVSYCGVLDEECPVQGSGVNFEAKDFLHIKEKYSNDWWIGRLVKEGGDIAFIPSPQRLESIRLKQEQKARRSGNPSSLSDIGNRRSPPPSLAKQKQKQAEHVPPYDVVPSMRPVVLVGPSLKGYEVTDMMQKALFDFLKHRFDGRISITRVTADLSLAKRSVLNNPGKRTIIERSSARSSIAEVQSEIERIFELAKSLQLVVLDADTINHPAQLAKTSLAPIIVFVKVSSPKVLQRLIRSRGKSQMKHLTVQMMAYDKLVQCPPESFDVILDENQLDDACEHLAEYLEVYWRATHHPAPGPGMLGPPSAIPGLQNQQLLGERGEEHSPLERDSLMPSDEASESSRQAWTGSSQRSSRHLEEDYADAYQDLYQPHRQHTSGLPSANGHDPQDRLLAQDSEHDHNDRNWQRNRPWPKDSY
Sequence (P54290 25-944 partner limits assumed): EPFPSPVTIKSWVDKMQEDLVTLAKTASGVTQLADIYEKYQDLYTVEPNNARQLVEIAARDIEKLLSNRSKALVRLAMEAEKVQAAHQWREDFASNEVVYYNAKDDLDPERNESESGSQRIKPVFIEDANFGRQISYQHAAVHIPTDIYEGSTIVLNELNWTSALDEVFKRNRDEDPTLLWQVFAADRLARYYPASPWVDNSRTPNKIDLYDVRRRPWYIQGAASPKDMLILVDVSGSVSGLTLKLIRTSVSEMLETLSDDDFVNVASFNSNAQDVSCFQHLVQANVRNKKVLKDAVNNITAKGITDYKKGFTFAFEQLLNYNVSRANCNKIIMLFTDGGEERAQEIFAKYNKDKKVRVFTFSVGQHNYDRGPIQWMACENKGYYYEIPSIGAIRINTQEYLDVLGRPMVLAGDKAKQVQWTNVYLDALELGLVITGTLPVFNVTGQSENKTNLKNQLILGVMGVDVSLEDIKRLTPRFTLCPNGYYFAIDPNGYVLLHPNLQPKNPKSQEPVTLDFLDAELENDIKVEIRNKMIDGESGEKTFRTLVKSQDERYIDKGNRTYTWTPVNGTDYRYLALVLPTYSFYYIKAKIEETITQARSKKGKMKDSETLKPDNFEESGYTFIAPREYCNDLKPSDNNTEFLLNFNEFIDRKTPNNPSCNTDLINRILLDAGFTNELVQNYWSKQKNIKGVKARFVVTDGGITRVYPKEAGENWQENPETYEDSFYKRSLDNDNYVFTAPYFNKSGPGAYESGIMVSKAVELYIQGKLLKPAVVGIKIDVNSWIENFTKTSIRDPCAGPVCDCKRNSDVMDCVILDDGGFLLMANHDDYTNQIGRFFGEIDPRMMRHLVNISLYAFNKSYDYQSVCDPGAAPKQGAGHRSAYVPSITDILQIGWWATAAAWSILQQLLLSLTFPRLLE
Sequence (P54290 945-1091 partner limits assumed): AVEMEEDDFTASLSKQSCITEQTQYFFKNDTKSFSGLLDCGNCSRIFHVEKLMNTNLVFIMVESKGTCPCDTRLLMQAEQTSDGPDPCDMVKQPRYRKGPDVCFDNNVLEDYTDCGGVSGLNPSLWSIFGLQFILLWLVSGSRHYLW
Param answer (str): number followed by unit.

Worked examples, 3 compounds total:
{"columns": ["structure", "IC50"],
 "data": [
  ["CCc1nc(C)c(C(=O)NCCCc2ccccc2)c(-c2cc(Cl)cc(Cl)c2)n1", "3.98 µM"],
  ["CSc1nc(C)c(C(=O)NCCCc2ccccc2)c(-c2ccc(C)cc2C)n1", "5.01 µM"],
  ["Cc1nc(C)c(C(=O)N2CCN(C)CC2)c(-c2cccc(Cl)c2)c1C(=O)OCCC(c1ccccc1)c1ccccc1", "1.26 µM"]
]}

Could you now look at the following compound, please?
Query: Which value of IC50 has been reported for CSc1nc(C)c(C(=O)NCCCc2ccccc2)c(-c2c(Cl)cccc2Cl)n1 in the records?
Response: 2.51 µM

====

target: N-type calcium channels (Homo sapiens); construct: Human neuroblastoma cells IMR-32 were obtained from ATCC; host or cells: IMR-32 human neuroblastoma cells, differentiated with dibutyl cAMP and 5-bromodeoxyuridine; assay: Antagonistic activity on N-type calcium channels (fluorescence dye method, IMR-32 cells); assay type: cell-based; details: 10 μM test compound, read-out: N-type inhibition (inhibition rate (%) at 10 μM)
measurement_type: inhibition at 10 µM (%)
One number for each entry, in %.

Past entries and their recorded results:
{"columns": ["structure", "measurement_type", "unit", "measurement"],
 "data": [
  ["Cc1nc(C)c(C(=O)N2CCN(C)CC2)c(-c2cccc(Cl)c2)c1C(=O)OCCC(c1ccccc1)c1ccccc1", "inhibition at 10 µM", "%", 70],
  ["CSc1nc(C)c(C(=O)NC/C=C/c2ccccc2)c(-c2cccc(Cl)c2)n1", "inhibition at 10 µM", "%", 52]
]}

Can you give me inhibition at 10 µM for all of these, one by one?
1. Cc1nc(C)c(C(=O)N2CCNCC2)c(-c2cccc(Cl)c2)c1C(=O)OCCC(c1ccccc1)c1ccccc1
2. CSc1nc(C)c(C(=O)NCCCc2ccccc2)c(-c2ccc(C)cc2C)n1
3. CSc1nc(C)c(C(=O)NCCCc2ccccc2)c(-c2cccc(Cl)c2)n1
4. CCc1nc(C)c(C(=O)NCCCc2ccccc2)c(-c2cc(Cl)cc(Cl)c2)n1
5. CSc1nc(C)c(C(=O)NCCCc2ccccc2)c(-c2c(Cl)cccc2Cl)n1

Response:
1: 56; 2: 63; 3: 58; 4: 74; 5: 77
